Provide the reported growth inhibition of each item.
Experiment: NCI Yeast Anticancer Drug Screen. Data for the sgs1 strain (AID 173);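 note: 0% = growth of vehicle-only control cultures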
Settings: S. cerevisiae sgs1 mutant, at 1.2 µM, hits give high values
About 79,000 compounds went through this panel and 15% of them were active in at least one assay; those are over-represented in the sample as a whole.
Numeric only. Scale: %

Prompt line: Consider the molecule Cc1cccc(/C=N/NC(=S)NC2CCCCC2)n1 and give its measured growth inhibition.
Response line: -3

Prompt line: Consider the molecule CNC(=S)N/N=C(/C)CCC/C(C)=N/NC(=S)NC and give its measured growth inhibition.
Response line: 14

Prompt line: Consider the molecule CC1(C)CC(=O)C(/C=N/c2nc(-c3ccc(Br)cc3)cs2)=C(O)C1 and give its measured growth inhibition.
Response line: 10

Prompt line: Consider the molecule NC(=O)NC1C(c2ccccc2)=C1c1ccccc1 and give its measured growth inhibition.
Response line: 8

Prompt line: Consider the molecule Cc1ccc(NC(Nc2ccc(C)cc2C)=C(C(Cl)=C(Cl)Cl)[N+](=O)[O-])c(C)c1 and give its measured growth inhibition.
Response line: 1

Prompt line: Consider the molecule [N-]=[N+]=NC1(c2ccccc2)C(=O)Nc2ccccc2C1=O (stereo unspecified) and give its measured growth inhibition.
Response line: -1
